Numbers sourced from paper PMC9482650.

system: IL16_1, Q14005
Sequence (Q14005 210-306): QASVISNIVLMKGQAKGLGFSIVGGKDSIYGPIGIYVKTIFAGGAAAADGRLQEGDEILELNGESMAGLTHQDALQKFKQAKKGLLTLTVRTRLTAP
measurement description: holdup assay
Parameters: key: below the threshold = too weak to quantify, mostly under pKd 3.1 to 4
condition description: plain residues with an end cap or a label only (N-terminal biotin on a linker: ado-ado)
recorded endpoint: pKd

IKAIVDLTGL [TRAF2, Q12933] ... below the threshold
LPHGHSTTRV [NLGN4X, Q8N0W4] ... below the threshold
RRISSLESEV [GRIN2C, Q14957] ... 4.55
TACCHSETVV [TGFA, P01135] ... 4.1
